target: A2a receptors (Rattus norvegicus, UniProt P30543); construct: Displacement of specific [^3 H]; from tissue; host or cells: rat striatal membranes; assay: radioligand binding, displacement of specific [3H]CGS 21680 binding in rat striatal membranes; conditions: Table 15; [3H]CGS 21680, rat striatal membranes; read-out: Ki rA2A
Sequence (P30543 whole entry): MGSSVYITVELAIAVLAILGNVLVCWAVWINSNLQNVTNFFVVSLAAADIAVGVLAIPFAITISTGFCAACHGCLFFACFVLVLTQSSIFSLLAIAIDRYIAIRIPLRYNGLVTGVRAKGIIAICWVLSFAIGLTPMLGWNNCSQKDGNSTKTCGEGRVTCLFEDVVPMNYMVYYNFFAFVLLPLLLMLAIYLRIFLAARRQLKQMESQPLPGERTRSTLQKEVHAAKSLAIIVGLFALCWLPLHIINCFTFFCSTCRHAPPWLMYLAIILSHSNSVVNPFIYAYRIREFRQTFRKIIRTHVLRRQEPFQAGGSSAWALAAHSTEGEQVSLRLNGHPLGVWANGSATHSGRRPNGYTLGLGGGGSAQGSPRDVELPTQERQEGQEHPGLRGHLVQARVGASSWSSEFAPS
pKi: −log10 of the molar value.
pKi vs 7: at or above is condition met, below is condition not met.

INSERT INTO assay_data (structurenotation, testedon, assignedclass) VALUES
  ('CC(C)(C)OC(=O)NCCCC(=O)Nc1nc2ccc(Cl)cc2c2nc(-c3ccco3)nn12', 'A2a receptors (Rattus norvegicus, UniProt P30543)', 'condition not met'),
  ('CCCCC(=O)Nc1nc2ccc(Cl)cc2c2nc(-c3ccco3)nn12', 'A2a receptors (Rattus norvegicus, UniProt P30543)', 'condition met'),
  ('O=C(Cc1ccccc1)Nc1nc2ccc(Cl)cc2c2nc(-c3ccco3)nn12', 'A2a receptors (Rattus norvegicus, UniProt P30543)', 'condition met'),
  ('CC(C)(C)C(=O)Nc1nc2ccc(Cl)cc2c2nc(-c3ccco3)nn12', 'A2a receptors (Rattus norvegicus, UniProt P30543)', 'condition met'),
  ('O=C(Nc1nc2ccc(Cl)cc2c2nc(-c3ccco3)nn12)c1ccccc1', 'A2a receptors (Rattus norvegicus, UniProt P30543)', 'condition not met'),
  ('CCCC(=O)Nc1nc2ccc(Cl)cc2c2nc(-c3ccco3)nn12', 'A2a receptors (Rattus norvegicus, UniProt P30543)', 'condition met'),
  ('O=C(Nc1nc2ccc(Cl)cc2c2nc(-c3ccc(Br)o3)nn12)c1ccccc1', 'A2a receptors (Rattus norvegicus, UniProt P30543)', 'condition not met'),
  ('O=c1[nH]c2ccc(Cl)cc2c2nc(-c3ccco3)nn12', 'A2a receptors (Rattus norvegicus, UniProt P30543)', 'condition not met'),
  ('NCCCC(=O)Nc1nc2ccc(Cl)cc2c2nc(-c3ccco3)nn12', 'A2a receptors (Rattus norvegicus, UniProt P30543)', 'condition met');

###

molecular target: A1 receptors (Rattus norvegicus, UniProt P25099); assay: biochemical; format: binding; settings: Table 10; [3H]PIA, rat brain membranes; read-out: Ki rA1
Sequence (P25099 whole entry): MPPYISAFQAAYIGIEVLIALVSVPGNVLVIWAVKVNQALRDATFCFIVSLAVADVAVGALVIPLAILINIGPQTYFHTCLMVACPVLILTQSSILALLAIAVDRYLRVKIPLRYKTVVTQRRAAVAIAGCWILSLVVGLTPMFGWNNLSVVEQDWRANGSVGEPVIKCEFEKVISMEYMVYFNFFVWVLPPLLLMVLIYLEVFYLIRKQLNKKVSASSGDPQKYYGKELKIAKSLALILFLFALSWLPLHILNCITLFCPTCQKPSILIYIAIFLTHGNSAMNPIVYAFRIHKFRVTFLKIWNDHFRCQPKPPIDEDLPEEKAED
resultType: Ki

INSERT INTO results (structurenotation, testedon, resulttype, value) VALUES
  ('CCOC(=O)c1c(C)nc(C)c(C(=O)OC)c1C', 'A1 receptors (Rattus norvegicus, UniProt P25099)', 'Ki', '6.95 µM');

###

biological target: A2a receptors (Rattus norvegicus); construct: Displacement of specific [^3 H]; from tissue; host or cells: rat striatal membranes; experiment: radioligand binding, displacement of specific [3H]CGS 21680 binding in rat striatal membranes; details: Table 12; 10^-4 M; read-out: % inhibition rA2A
resultType: inhibition at 100 µM (%)

INSERT INTO assay_data (compound, valueunit, value) VALUES
  ('CCOC(=O)C1=C(C)NC(c2ccccc2)=C(C(=O)OCc2cccc(C)c2)C1C#Cc1ccccc1 (racemic) [Compound 122b]', '%', 16),
  ('CCOC(=O)C1=C(C)NC(c2ccccc2)=C(C(=O)OCc2ccccc2C)C1C#Cc1ccccc1 (racemic) [Compound 122a]', '%', 13),
  ('CCOC(=O)C1=C(c2ccccc2)NC(C)=C(C(=O)OC(C)(C)C)C1C#Cc1ccccc1 (racemic)', '%', 20),
  ('CCOC(=O)C1=C(C)NC(c2ccccc2)=C(C(=O)OCC)C1c1cccnc1 (racemic)', '%', 40);

Reference for the values: patent US6066642A
